Target: T1, GFP-fused huCB1-SMALP (human, UniProt P21554 1-472)
T1 construct: Human CB1 fused to GFP in styrene maleic acid lipoparticles, made as in Luna et al. 2018; also called huCB1-GFP-SMALP; GFP-tagged huCB1-SMALP; not shown: GFP fused to huCB1
T1 sequence (P21554 whole entry, the tested form may be a part): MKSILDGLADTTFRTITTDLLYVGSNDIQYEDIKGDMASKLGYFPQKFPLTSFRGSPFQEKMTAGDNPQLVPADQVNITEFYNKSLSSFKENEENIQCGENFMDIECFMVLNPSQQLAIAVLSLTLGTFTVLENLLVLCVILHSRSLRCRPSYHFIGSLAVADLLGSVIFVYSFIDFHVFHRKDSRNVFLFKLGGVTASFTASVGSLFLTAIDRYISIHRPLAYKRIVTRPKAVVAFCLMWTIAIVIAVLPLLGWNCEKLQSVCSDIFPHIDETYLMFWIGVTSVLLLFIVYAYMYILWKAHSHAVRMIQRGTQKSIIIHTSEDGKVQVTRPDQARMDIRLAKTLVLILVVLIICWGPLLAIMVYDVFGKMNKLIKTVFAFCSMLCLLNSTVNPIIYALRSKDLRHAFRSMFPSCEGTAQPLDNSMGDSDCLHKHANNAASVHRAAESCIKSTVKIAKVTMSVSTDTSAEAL
Assay: flow cytometry, yeast-displayed Fab, 5 nM CB1 SMALP
Quick reference for relative binding fold change compared to LIBC523797-1(Fab) among some binders
measurement_name: relative binding fold change compared to LIBC523797-1(Fab)

binder="LIBC674200-1 (Fab on yeast) (Fab, V domains shown, Original clone of the Fab-yeast libraries, without the LC G76D reversion) VH: QVQLQESGPGLVKPSQTLSLTCTVSGGSIRRGGDYWSWIRQHPGKGLEWIGHVYYTGQTAYNPNFRNRVRISVNTYKNQFSLKLSSVTAADTAVYYCARGYDVSGYSYYYYGMDVWGQGTTVTVSS VL: DIVMTQSPLSLPVTPGEPASISCRSSQSLLHRSGYNYLDWYLQKPGQSPQLLIYLGSNRASGVPGRFSGSGSGTDFTLKISRVEAEDVGVYYCMQSLQTPRTFGQGTKVEIKR" readout_value="1.33 fold"
binder="LIBC674090-1 (Fab on yeast) (Fab, V domains shown, Clone of the Fab-yeast libraries) VH: QVQLQESGPGLVKPSQTLSLTCTVSGGSIRRGGDYWSWIRQHPGKGLEWIGHIYYAGSTAYNPNFRGRVRISVNTYKNQFSLKLSSVTAADTAVYYCARGYDTSGYSYYYYGLDVWGQGTTVTVSS VL: DIVMTQSPLSLPVTPGEPASISCRSSQSLLHRSGYNYLDWYLQKPGQSPQLLIYQGSNRASGVPDRFSGSGSGTDFTLKISRVEAEDVGVYYCMQSLQTPRTFGQGTKVEIKR" readout_value="1.2 fold"
binder="LIBC674229-1 (Fab on yeast) (Fab, V domains shown, Clone of the Fab-yeast libraries) VH: QVQLQESGPGLVKPSQTLSLTCTVSGGSIRRGGDYWSWIRQHPGKGLEWIGHIYQTGQTKYNPSFKGRVRISVNTYKNQFSLKLSSVTAADTAVYYCARGYDVSGYSYYYYGMDVWGQGTTVTVSS VL: DIVMTQSPLSLPVTPGEPASISCRSSQSLLHRSGYNYLDWYLQKPGQSPQLLIYQGSNRASGVPDRFSGSGSGTDFTLKISRVEAEDVGVYYCMQSLQTPRTFGQGTKVEIKR" readout_value="1.11 fold"
binder="LIBC673952-1 (Fab on yeast) (Fab, V domains shown, Clone of the Fab-yeast libraries) VH: QVQLQESGPGLVKPSQTLSLTCTVSGGSIRRGGDYWSWIRQHPGKGLEWIGHVYYTGQTTYNPSFRGRVTISVNTYKNQFSLKLSSVTAADTAVYYCARDYDILTGYSYYYYGLDVWGQGTTVTVSS VL: DIVMTQSPLSLPVTPGEPASISCRSSQSLLHRSGYNYLDWYLQKPGQSPQLLIYQGSNRASGVPDRFSGSGSGTDFTLKISRVEAEDVGVYYCRQARALPRTFGQGTKVEIKR" readout_value="1.23 fold"

src = patent US20250277029A1
